# System: Astrocyte
# PROCEDURE DETAILS: Neuroprotective activity in Sprague-Dawley rat astrocytes assessed as effect on vimentin positive cell density and morphology at 50 uM by fluorescence microscopic method
# Assay type: functional, cell-based
Activity calls are given as the source filed them. The calls are words filed in the database; no cut-off is given here.
Classes used: active, inactive

1. Nc1ccc2ncc(-c3ccc(F)cc3)nc2c1    inactive
2. Nc1ccc2ncc(-c3ccccc3)nc2c1    inactive
3. Nc1ccc2nc(-c3ccccc3)cnc2c1    inactive
4. C#CCNc1ccc2ncc(-c3ccccc3)nc2c1    active
5. C#CCNc1ccc2ncc(-c3ccc(F)cc3)nc2c1    active
